In what follows, each item is paired with its Ki for 5-hydroxytryptamine receptor 2B (Homo sapiens).
# number only, unit µM dropped from output

| smiles entry | experimental target | quantity unit | Ki |
| --- | --- | --- | --- |
| COc1cc(OC)c(C(=O)CCCCN2CCC3(CC2)NC(=O)NC3=O)cc1NS(=O)(=O)c1ccc(C(F)(F)F)cc1 | 5-hydroxytryptamine receptor 2B (Homo sapiens) | µM | 0.316 |

Proceeding to the next molecule to report its Ki.
**Q:** State, for 5-hydroxytryptamine receptor 2B (Homo sapiens), measured Ki of the molecule listed here: CN1C[C@@H](NS(=O)(=O)N(C)C)C[C@@H]2c3cccc4c3c(cn4C)C[C@H]21
**A:** 0.002

* * *

In what follows, each item is paired with its pKi for 5-hydroxytryptamine receptor 2C (Homo sapiens, UniProt P28335).
Scale for pKi: -log10 of concentration given in mol/L; no unit attached.

| smiles entry | experimental target | pKi |
| --- | --- | --- |
| COc1cc(OC)c(C(=O)CCCCN2CCC3(CC2)NC(=O)NC3=O)cc1NS(=O)(=O)c1ccc(C(F)(F)F)cc1 | 5-hydroxytryptamine receptor 2C (Homo sapiens, UniProt P28335) | 8.70 |

Proceeding to the next compound to report its pKi.
**Q:** State, for 5-hydroxytryptamine receptor 2C (Homo sapiens, UniProt P28335), measured pKi of the compound listed here: O=C(CCCN1CCC2(CC1)C(=O)NCN2c1ccccc1)c1ccc(F)cc1
**A:** 6.20
